# ASSAY REMARKS: Stability in human serum assessed as parent compound remaining incubated at 48 hrs by RP-HPLC analysis
# Assay type: ADME, cell-free
# PROTOCOL CONDITIONS: read-out: Stability
Residues, ends and D or L forms follow the SMILES beside them.

>  <COMPOUND>
CC[C@H](C)[C@H](NC(=O)[C@H](CC(=O)O)NC(=O)[C@@H]1CCCN1C(=O)[C@H](CC(N)=O)NC(=O)[C@H](CC(N)=O)NC(=O)[C@@H](NC(=O)[C@H](CO)NC(=O)[C@H](CS)NC(=O)[C@H](C)NC(=O)[C@@H]1CCCN1C(=O)[C@H](Cc1cnc[nH]1)NC(=O)[C@H](CN)NC(=O)[C@H](CS)NC(=O)[C@H](CS)NC(=O)CN)C(C)C)C(=O)N[C@@H](CS)C(N)=O (HELM PEPTIDE1{G.C.C.[NC[C@H](N[*:1])C(=O)[*:2]].H.P.A.C.S.V.N.N.P.D.I.C.[am]}$$$$V2.0)

>  <remaining at 48 h>
< 30%

$$$$

Sourced from ChEMBL document CHEMBL6074659
